Assay: Rat Hepatocyte Stability (Test E)
Format: in vitro ADME
Conditions: rat, hepatocytes, geometric mean if run multiple times
MEASURED_METRIC: hepatocyte CLint (µL/min/1e6 cells)
Give a bare numeral; the unit µL/min/1e6 cells is implied.

Please review the following examples before continuing.
{"columns": ["CHEM_SMILES", "MEASURED_METRIC", "QUANTITATIVE_RESULT"],
 "data": [
  ["COc1cc(F)c(O[C@H]2CC[C@@](C)(C(=O)O)CC2)cc1C(=O)Nc1cc(Cl)ccc1C(=O)NCC1(C)CCC1", "hepatocyte CLint", 30],
  ["COc1cc(F)c(O[C@H]2CC[C@@H](C(=O)O)CC2)cc1C(=O)N[C@@H]1[C@H]2CC[C@H](C2)[C@@H]1C(=O)Nc1cc(F)c(F)c(F)c1", "hepatocyte CLint", 21]
]}

What hepatocyte CLint value was documented for this molecule, `COc1cc(F)c(-c2cnn(CC(=O)O)c2)cc1C(=O)N[C@H]1[C@@H](C(=O)Nc2cccc(S(=O)(=O)C(F)(F)F)c2)[C@@H]2C=C[C@H]1C2` ?
7

These data points were gathered from patent US11667602B2.
